Data provenance is ChEMBL document CHEMBL1629527.

Tested on: Candida tropicalis
method.notes: Antifungal activity against Candida tropicalis 04-202361 after 24 to 72 hrs by broth microdilution method
Assay type: functional
Please note: MIC exactly at 0.9 µg/mL is 0. Only values below 0.9 µg/mL get 1.

Check out these entries, answers already filled in.
{"columns": ["smiles.notation", "class"],
 "data": [
  ["C=CCCCc1cc[n+](CCCCCCCCCCCC[n+]2ccc(CCCC=C)cc2)cc1.[Cl-].[Cl-]", 0],
  ["CCCCCc1cc[n+](CCCCCCCCCCCC[n+]2ccc(CCCCC)c(CCCCC)c2)cc1CCCCC.[Cl-].[Cl-]", 0],
  ["CC(C)CCc1cc[n+](CCCCCCCCCCCC[n+]2ccc(CCC(C)C)cc2)cc1.[Cl-].[Cl-]", 0],
  ["CC(C)(C)CCc1cc[n+](CCCCCCCCCCCC[n+]2ccc(CCC(C)(C)C)cc2)cc1.[Cl-].[Cl-]", 0],
  ["CCCCC(CCCC)c1cc[n+](CCCCCCCCCCCC[n+]2ccc(C(CCCC)CCCC)c(C)c2)cc1C.[Cl-].[Cl-]", 0],
  ["[Cl-].[Cl-].c1ccc(CCCc2cc[n+](CCCCCCCCCCCC[n+]3ccc(CCCc4ccccc4)cc3)cc2)cc1", 1],
  ["CCCCCc1cc[n+](CCCCCCCCCCCC[n+]2ccc(CCCCC)c(C)c2)cc1C.[Cl-].[Cl-]", 1],
  ["CCCCCc1cc[n+](CCCCCCCCCCCC[n+]2ccc(CCCCC)cc2)cc1.[Cl-].[Cl-]", 1],
  ["CCCCCc1cccc[n+]1CCCCCCCCCCCC[n+]1ccccc1CCCCC.[Cl-].[Cl-]", 1]
]}

Turning now to a further record.
Challenge: Record CCCCCCc1cc[n+](CCCCCCCCCCCC[n+]2ccc(CCCCCC)cc2)cc1.[Cl-].[Cl-] : is its MIC strictly below 0.9 µg/mL?
Response given: 1
